# Assay target: Potassium voltage-gated channel subfamily A member 5 (Homo sapiens, UniProt P22460)
# Sequence (P22460 whole entry): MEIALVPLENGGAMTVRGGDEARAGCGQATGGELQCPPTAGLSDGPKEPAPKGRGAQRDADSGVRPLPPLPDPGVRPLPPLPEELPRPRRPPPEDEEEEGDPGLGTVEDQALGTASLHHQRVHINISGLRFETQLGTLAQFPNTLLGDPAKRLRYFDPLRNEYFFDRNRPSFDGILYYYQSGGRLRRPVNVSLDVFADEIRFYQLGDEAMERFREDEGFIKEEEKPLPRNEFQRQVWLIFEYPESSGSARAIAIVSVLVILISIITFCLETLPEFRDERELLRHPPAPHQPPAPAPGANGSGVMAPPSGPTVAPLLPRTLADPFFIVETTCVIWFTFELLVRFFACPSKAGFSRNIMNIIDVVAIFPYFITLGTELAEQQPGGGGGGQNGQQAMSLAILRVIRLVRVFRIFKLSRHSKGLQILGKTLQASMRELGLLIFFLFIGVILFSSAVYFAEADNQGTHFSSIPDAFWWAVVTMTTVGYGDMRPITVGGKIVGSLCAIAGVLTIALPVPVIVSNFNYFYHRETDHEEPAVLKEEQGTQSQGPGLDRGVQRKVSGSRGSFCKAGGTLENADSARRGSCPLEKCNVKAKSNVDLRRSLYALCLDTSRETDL
# Assay: Inhibition of human KV1.5 expressed in mouse L929 cells assessed as decrease in ultrarapid potassium current amplitude
pIC50: −log10 of the molar value.

[
  {
    "Structure string": "COc1cccc2c1C(NC[C@]1(c3ccccc3)CC[C@@H](O)CC1)=NS2(=O)=O",
    "pIC50": "< 6.52"
  },
  {
    "Structure string": "CCOP(=O)(NC(=O)O[C@H]1CC[C@](CNC2=NS(=O)(=O)c3cccc(OC)c32)(c2ccccc2)CC1)OCC",
    "pIC50": "< 5.00"
  },
  {
    "Structure string": "COc1cccc2c1C(NC[C@]1(c3ccccc3)CC[C@H](OC(=O)NS(=O)(=O)c3ccccc3)CC1)=NS2(=O)=O",
    "pIC50": "< 5.00"
  },
  {
    "Structure string": "COc1cccc2c1C(NC[C@]1(c3ccccc3)CC[C@H](OC(=O)NCCO)CC1)=NS2(=O)=O",
    "pIC50": "< 5.00"
  }
]
